# Test Method Notes: compound binding in COS7 lysate, probe aLAP1, primary screen, cell lysate, small-molecule microarray (AID 1124);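 note: lysate comes from COS7 cells expressing LAP1 and is applied at 0.3 µg/mL; score merges spot fluorescence near 667 nm with signal-to-noise over triplicate slides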
# Test Parameters: probe aLAP1, fluorescence, higher = more signal
Decision: composite z-score >= 0.5 yields met, all other cases yield not met.

COCCOC(=O)N1C(=O)[C@@]2(c3cc(C#CC4=CCCCC4)ccc31)[C@H](C(N)=O)[C@H]1C(=O)O[C@H](c3ccccc3)[C@H](c3ccccc3)N1[C@@H]2c1ccc(OCCO)cc1: not met
COCCOC(=O)N1C(=O)[C@@]2(c3cc(C#CC4(O)CCCCCC4)ccc31)[C@H](c1ccc(O)cc1)N1[C@H](c3ccccc3)[C@H](c3ccccc3)OC(=O)[C@H]1[C@@H]2C(=O)Nc1nc2ccccc2s1: met
O=C1OCC=C[C@H]2OC34C=CCN(c5ccc6ccccc6c5)C(=O)[C@H]3N(CCCCCCO)C(=O)[C@@H]4[C@@H]12 (some centres undefined): met
CC(C)N1C(=O)[C@@]2(Cc3ccccc31)c1ccccc1C(=O)N(C1CCCCC1)[C@H]2c1ccc(CO)cc1: met
O=C(NCc1ccccc1)[C@@]1(Cc2ccccc2)N=C(c2ccc(OCCCO)cc2)O[C@H]1c1ccccc1: met
COCCn1c(C(=O)N2CCCC2)cc2c1C[C@H]1CN(C(=O)c3ccccc3)[C@@](Cc3ccc(F)cc3)(C(=O)OC)[C@@H]21: not met
C[C@]1(C(=O)NC2CC2)c2ccccc2C(=O)N(Cc2cc(C(F)(F)F)cc(C(F)(F)F)c2)[C@H]1c1ccc(CO)cc1: not met
COc1cc(CO)cc(I)c1O[C@H]1C=C(C(=O)NCCO)C[C@@H](N(CCN2CCOCC2)C(=O)C2CCOC2)[C@@H]1O (some centres undefined): not met
[N-]=[N+]=NCc1ccccc1[C@@H]1OC(c2ccc(OCCCO)cc2)=N[C@]1(CCS(=O)(=O)c1ccccc1)C(=O)NCc1ccccc1: met
COCCCN1C(=O)[C@@]2(Cc3ccccc31)c1ccccc1C(=O)N(Cc1ccccc1C(F)(F)F)[C@H]2c1ccc(CO)cc1: not met
O=C(c1ccccc1)N1Cc2ccccc2[C@@H]2OC(c3ccc(OCCCO)cc3)=N[C@]2(Cc2ccccc2)C1=O: not met
O=C(NCC(F)(F)F)[C@@H]1c2ccccc2C(=O)N(C2CCCCC2)[C@H]1c1ccc(CO)cc1: not met
NCCCCCNC(=O)[C@@H]1C[C@@H]2C(=O)N[C@@H](Cc3ccccc3)C(=O)N2[C@@H]1c1cccc(OCCO)c1: not met

----------
# Tested on: Wnt5a (protein binding on small-molecule microarray)
# Test Method Notes: Wnt5a binders on small-molecule microarray, primary screen, biophysical, 635/667 nm fluorescence (AID 1142);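 note: fluorescence read at 667 nm with signal to noise per printed feature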
# Test Parameters: 635 nm fluorescence, higher = more signal
composite z-score listing for selected compounds.
Assay Endpoint: composite z-score

CCCCCN1CC=CC23O[C@@H]4/C=C\CCCOC(=O)C4[C@H]2C(=O)N(CCCO)[C@@H]3C1=O (stereo not given in full): 0.132
CN1C2C=C(CCCO)C(C3C(=O)N(C(N)=O)C(=O)C32)C1c1ccc(CN2CCCC2)cc1 (stereo not given): 0.269
[N-]=[N+]=NCc1ccccc1C[C@@]1(C(=O)NCC(O)CO)N=C(c2ccc(OCCCO)cc2)O[C@@H]1c1ccccc1N=[N+]=[N-] (stereo not given in full): 0.63
C#CCN(CC=C(C)C)[C@H](CO)c1ccccc1: -0.0366
COC(=O)[C@@]1(Cc2ccc(F)cc2)[C@H]2c3cc(C(=O)N(C)C)n(Cc4ccc(S(C)(=O)=O)cc4)c3C[C@H]2CN1C(=O)c1ccccc1: 0.0577
COCCOC(=O)N1C(=O)[C@@]2(c3ccccc31)[C@H](c1ccccc1OCCO)N1[C@H](c3ccccc3)[C@H](c3ccccc3)OC(=O)[C@H]1[C@@H]2C(=O)Nc1nc2ccccc2s1: 0.212
COC(=O)[C@@]1(Cc2ccc(OC)cc2)[C@H]2c3cc(C(=O)N(C)C)n(CCN4CNCC4=O)c3C[C@H]2CN1C(=O)c1ccccc1: 0.0523
CCOC(=O)[C@H]1CC=C2CC1C(=O)N1CCC[C@@H]1[C@@H]2O[Si](C)(C)C(C)(C)C (stereo not given in full): -0.395
C=C(CCCC)C(=O)CC[C@H](OC(C)=O)c1cccc(OCCO)c1: -0.247
O=C1C[C@]2(c3ccc([N+](=O)[O-])cc3)C(=O)N(CCN3CCOCC3)c3cc(CO)ccc3[C@H]2N1C1CCCCC1: -0.179

----------
z-score listing for selected compounds.
# Test Method Notes: adipocyte viability effects, profiling panel, cell-based, 3T3-L1 adipocytes, calcein-AM fluorescence, 48 h, basal (AID 1163); note: test concentration not given here
# Test Parameters: 3T3-L1 adipocytes viability, higher = more signal
Assay Endpoint: z-score

CC(C)C(=C=CC[C@@H](O)c1ccccc1OCCO)CCO: -1.23
COc1ccc(CCN2C(=O)[C@@]3(c4ccc([N+](=O)[O-])cc4)CC(=O)N(C4CCCCC4)[C@@H]3c3ccc(CO)cc32)cc1: -1.26
CCCC=C(CCC)[C@@H](NC(=O)Oc1ccc(F)cc1)c1ccc(C(=O)OC)cc1: -0.609
CN(C)CCCNC(=O)[C@@]1(C)c2ccccc2C(=O)N(Cc2cc(F)cc(C(F)(F)F)c2)[C@H]1c1ccc(CO)cc1: -0.0121

----------
# System Under Test: Neurogenic locus notch homolog protein 3 (Homo sapiens) (UniProt Q9UM47)
# Sequence (Q9UM47 whole entry, looked up): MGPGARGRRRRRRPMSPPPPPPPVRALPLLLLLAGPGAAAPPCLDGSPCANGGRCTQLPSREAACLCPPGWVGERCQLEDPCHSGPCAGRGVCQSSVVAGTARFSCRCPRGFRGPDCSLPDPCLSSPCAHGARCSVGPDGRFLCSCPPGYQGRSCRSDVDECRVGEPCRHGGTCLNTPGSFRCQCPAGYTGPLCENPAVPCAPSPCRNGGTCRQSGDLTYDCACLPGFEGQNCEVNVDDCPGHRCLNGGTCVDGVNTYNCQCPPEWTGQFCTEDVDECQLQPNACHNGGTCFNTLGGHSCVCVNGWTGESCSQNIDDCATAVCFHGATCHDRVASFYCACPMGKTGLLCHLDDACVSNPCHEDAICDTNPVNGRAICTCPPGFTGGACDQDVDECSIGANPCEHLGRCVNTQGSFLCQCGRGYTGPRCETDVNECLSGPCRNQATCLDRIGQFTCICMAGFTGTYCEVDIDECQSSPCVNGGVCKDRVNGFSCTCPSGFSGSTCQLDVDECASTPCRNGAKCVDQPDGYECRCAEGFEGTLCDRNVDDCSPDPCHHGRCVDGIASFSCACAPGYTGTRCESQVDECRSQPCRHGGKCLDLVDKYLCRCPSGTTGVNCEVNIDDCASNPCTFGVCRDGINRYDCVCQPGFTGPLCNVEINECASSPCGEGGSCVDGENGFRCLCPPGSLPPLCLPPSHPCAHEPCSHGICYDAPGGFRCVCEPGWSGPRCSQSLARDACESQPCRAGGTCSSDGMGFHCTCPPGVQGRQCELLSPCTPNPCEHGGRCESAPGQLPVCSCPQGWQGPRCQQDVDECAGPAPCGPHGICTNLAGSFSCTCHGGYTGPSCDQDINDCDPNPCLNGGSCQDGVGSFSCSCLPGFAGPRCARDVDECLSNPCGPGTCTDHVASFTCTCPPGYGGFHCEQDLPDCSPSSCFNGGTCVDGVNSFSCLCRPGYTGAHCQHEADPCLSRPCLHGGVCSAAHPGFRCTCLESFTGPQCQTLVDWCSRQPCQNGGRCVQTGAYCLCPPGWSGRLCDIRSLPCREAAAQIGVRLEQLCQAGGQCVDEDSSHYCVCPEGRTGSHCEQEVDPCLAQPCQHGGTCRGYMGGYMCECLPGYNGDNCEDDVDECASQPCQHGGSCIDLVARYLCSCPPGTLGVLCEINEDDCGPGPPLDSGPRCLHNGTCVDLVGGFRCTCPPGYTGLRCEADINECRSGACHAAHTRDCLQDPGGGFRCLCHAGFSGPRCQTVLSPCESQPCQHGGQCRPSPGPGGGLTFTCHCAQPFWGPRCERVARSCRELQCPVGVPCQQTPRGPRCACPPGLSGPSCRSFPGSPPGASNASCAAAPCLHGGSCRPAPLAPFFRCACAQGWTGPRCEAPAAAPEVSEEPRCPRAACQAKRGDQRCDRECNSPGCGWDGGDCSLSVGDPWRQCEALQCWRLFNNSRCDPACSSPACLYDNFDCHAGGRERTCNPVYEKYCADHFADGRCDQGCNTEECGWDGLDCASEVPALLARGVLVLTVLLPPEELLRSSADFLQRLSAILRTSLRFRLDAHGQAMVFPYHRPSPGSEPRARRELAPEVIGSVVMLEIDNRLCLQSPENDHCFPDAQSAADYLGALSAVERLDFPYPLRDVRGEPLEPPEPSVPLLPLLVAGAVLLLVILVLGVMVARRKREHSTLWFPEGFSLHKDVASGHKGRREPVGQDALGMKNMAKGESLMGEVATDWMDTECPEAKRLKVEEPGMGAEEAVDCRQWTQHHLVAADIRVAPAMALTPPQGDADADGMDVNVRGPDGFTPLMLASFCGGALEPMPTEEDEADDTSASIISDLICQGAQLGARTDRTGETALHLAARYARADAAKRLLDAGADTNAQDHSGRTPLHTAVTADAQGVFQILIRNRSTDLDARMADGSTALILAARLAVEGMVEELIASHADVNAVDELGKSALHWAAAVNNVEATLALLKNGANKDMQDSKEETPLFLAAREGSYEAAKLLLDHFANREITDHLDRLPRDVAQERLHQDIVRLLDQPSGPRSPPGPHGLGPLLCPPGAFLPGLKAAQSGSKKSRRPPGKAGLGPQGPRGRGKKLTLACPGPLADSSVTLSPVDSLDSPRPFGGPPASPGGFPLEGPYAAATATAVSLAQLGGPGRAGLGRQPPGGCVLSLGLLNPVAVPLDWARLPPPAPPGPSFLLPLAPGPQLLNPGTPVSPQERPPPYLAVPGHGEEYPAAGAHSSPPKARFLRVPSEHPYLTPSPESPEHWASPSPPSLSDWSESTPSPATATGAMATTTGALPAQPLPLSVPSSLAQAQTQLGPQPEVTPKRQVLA
# Test Method Notes: NOTCH3 binders on small-molecule microarray, primary screen, biochemical, 635/667 nm fluorescence (AID 1096)
# Test Parameters: NOTCH3 binding, 635 nm fluorescence, higher = more signal
composite z-score listing for selected molecules.
Assay Endpoint: composite z-score

CCCCC=C[C@@H](NC(=O)Oc1cccc(C(F)(F)F)c1)c1ccccc1: 1.08
CCCCN1CC=CC23O[C@@H]4/C=C\CCC(C)OC(=O)C4[C@H]2C(=O)N(CCCCCO)[C@@H]3C1=O (some centres not stated): -0.292
COc1ccc(C#Cc2ccc3c(c2)[C@]2(C(=O)N3)[C@H](c3ccccc3OCCO)N3[C@H](c4ccccc4)[C@H](c4ccccc4)OC(=O)[C@H]3[C@@H]2C(=O)O)cc1: 1.03
CCOC(=O)[C@H]1C/C=C/C[C@H](C(=O)OCC)C(=O)O[C@H]2[C@@H](OC)O[C@H](CO)[C@@H](OC(=O)Nc3cccc(F)c3)[C@@H]2OC1=O: 1.02
COc1ccc(C(=O)Nc2ccc(CN3C(=O)[C@@]4(O[C@@H](CCO)[C@H]([Si](C)(C)c5ccc(OC)cc5)[C@H]4C)c4ccccc43)cc2)cc1: 1.08
CC(C)OC(=O)C=C1C[C@@H](c2ccccc2C(F)(F)F)O[C@@H](c2ccccc2C(F)(F)F)O1: 0.266
CC(C)c1ccc(NN2C(C(O)C(c3ccccc3)c3ccccc3)C=CC3C(=O)N(c4ccccc4)C(=O)C32)cc1 (configuration not stated): 1.06

----------
# Test Method Notes: inhibitors of hydroxyurea-induced Chk1 phosphorylation, primary screen, imaging, HeLa, phospho-Chk1 antibody, percent positive cells (AID 1186)
# Test Parameters: hydroxyurea-induced phospho-Chk1 immunofluorescence imaging, higher = more signal
Decision: z-score >= -0.6 yields Y, all other cases yield N.

C=CCC(OC(C)=O)[C@@H]1[C@@H](N(Cc2cccc3ccccc23)C(=O)c2ccc(-c3ccccc3)cc2)c2cc(OCCCO)ccc2N1C(=O)Cc1ccc(OC)cc1 (stereo partly drawn): Y
[N-]=[N+]=NCc1ccccc1[C@@H]1OC(c2ccc(OCCCO)cc2)=N[C@]1(CCS(=O)(=O)c1ccccc1)C(=O)NCc1ccccc1: Y
CC1CC/C=C\[C@H]2OC34C=CCN(C(C)(C)C)C(=O)[C@H]3N(CCCCCCO)C(=O)[C@@H]4C2C(=O)O1 (stereo partly drawn): N
N#Cc1ccc(NN2C(C(O)c3c(F)cccc3Cl)C=CC3C(=O)N(c4ccccc4)C(=O)C32)cc1 (stereo not drawn): Y
COC(=O)C(CC#Cc1ccc2c(c1)[C@]1(C(=O)N2)[C@H](c2ccc(O)cc2)N2[C@H](c3ccccc3)[C@H](c3ccccc3)OC(=O)[C@H]2[C@@H]1C(=O)Nc1nc2ccccc2s1)C(=O)OC: Y
CCOC1=C2C(CN(S(=O)(=O)c3ccc(C)cc3)C2c2ccc(C)cc2)C2C(=O)N(c3ccccc3)C(=O)C2C1 (stereo not drawn): Y
C[C@]1(C(=O)NC2CC2)c2ccccc2C(=O)N(Cc2cc(C(F)(F)F)cc(C(F)(F)F)c2)[C@H]1c1ccc(CO)cc1: N
CCOC(=O)[C@H]1C/C=C/C[C@H](C(=O)OCC)C(=O)O[C@H]2[C@@H](OC)O[C@H](CO)[C@@H](OC(=O)Nc3ccc(C#N)cc3)[C@@H]2OC1=O: N
COC(=O)[C@@]1(Cc2ccc(F)cc2)[C@H]2c3cc(C(=O)N(C)C)n(Cc4nc5ccccc5[nH]4)c3C[C@H]2CN1C(=O)c1ccccc1: Y
COCCOC(=O)N1C(=O)[C@@]2(c3cc(C#Cc4ccc(OC)cc4)ccc31)[C@H](c1ccc(O)cc1)N1[C@H](c3ccccc3)[C@H](c3ccccc3)OC(=O)[C@H]1[C@@H]2C(=O)NC[C@H](O)c1ccccc1: Y
O=C(C1N=C(c2ccc(OCCCO)cc2)N(c2ccccc2)O1)N1CCOCC1 (stereo not drawn): Y
COC(=O)[C@@]1(Cc2ccc(F)cc2)[C@@H]2[C@@H](CC(=O)[C@H]2CC(=O)C(=O)N(C)C)CN1C(=O)c1ccccc1: Y
CC(CO)N1C(=O)[C@@H]2C3C(=O)OCCC/C=C\[C@H]3OC23C=CCN(c2ccc4ccccc4c2)C(=O)[C@@H]13 (stereo partly drawn): N
C=C(COC)/C(=C/C[C@@H](OC(C)=O)c1ccc(CO)o1)c1cnc2ccccc2c1: Y
CCOC(=O)C1=CCC(c2ccc(C)cc2)N(S(=O)(=O)c2ccc(C)cc2)C1 (stereo not drawn): Y
CC(C)c1ccc(NN2C(C(O)C(c3ccccc3)c3ccccc3)C=CC3C(=O)N(c4ccccc4)C(=O)C32)cc1 (stereo not drawn): Y
CC(C)N1C(=O)[C@@]2(Cc3ccccc31)c1ccccc1C(=O)N(C1CCCCC1)[C@H]2c1ccc(CO)cc1: Y
C=C(CCCC)C(=O)CC[C@H](OC(=O)c1cccnc1)c1ccccc1OCCO: N
CN(C)CCCCCCNC(=O)[C@@H]1C[C@@H]2C(=O)N[C@@H](CCCCN)C(=O)N2[C@@H]1c1cccc(OCCO)c1: N
NC(=O)[C@@H]1[C@H]2C(=O)O[C@H](c3ccccc3)[C@H](c3ccccc3)N2[C@H](c2ccc(O)cc2)[C@@]12C(=O)Nc1ccc(C#CC3(O)CCCCCC3)cc12: Y
CC(C)(C)OC(=O)CC[C@@]12N=C(c3ccc(OCCCO)cc3)O[C@@H]1c1ccccc1N(CCS(=O)(=O)c1ccccc1)C2=O: N
C=CCOC(=O)[C@H]1[C@@H]2C(=O)O[C@@H](c3ccccc3)[C@@H](c3ccccc3)N2[C@@H](c2ccc(OCCOC(=O)[C@@H]3C[C@@H]4C(=O)N5CCC[C@H]5C(=O)N4[C@@H]3c3cccc(OCCO)c3)cc2)[C@]12C(=O)Nc1ccccc12: N
COc1cc2c(cc1O)C(C1CC1)N(Cc1cc3c(cc1Br)OCO3)CC2 (stereo not drawn): Y
C=C[C@H](COC(C)=O)N(C(=O)OC(C)(C)C)S(=O)(=O)c1ccc(Br)cc1: Y
NCCCCCNC(=O)[C@@H]1C[C@@H]2C(=O)N[C@@H](Cc3ccccc3)C(=O)N2[C@@H]1c1cccc(OCCO)c1: Y
CC(=O)NCCCC[C@@H]1NC(=O)[C@@H]2C[C@H](C(=O)NCCCCN(C)C)[C@H](c3cccc(OCCO)c3)N2C1=O: Y
C=CC[C@]1(C(=O)N2CCCCC2)N=C(c2ccc(OCCCO)cc2)O[C@H]1c1ccccc1: Y

Each recorded value in this set is attributed to PubChem BioAssay.
